# SYSTEM NAME: Torsin-1A (Homo sapiens)
# ASSAY COMMENT: torsin A binders from cell lysate, primary screen, small-molecule microarray, wild-type, 635/667 nm (AID 1149)
# ASSAY CONTEXT: COS7 hTOR1A-WT lysate, 635 nm fluorescence, higher = more signal
PARAMETER MEASURED: composite z-score

Field composite z-score (entry CCCCCCCCCCC(O)C1C=CC2C(=O)N(C)C(=O)C2N1Nc1ccc([N+](=O)[O-])cc1[N+](=O)[O-] (stereo not given) ) reads -0.257

Field composite z-score (entry O=C1NC(=O)C2C1C=CC(C(O)c1c(F)cccc1Cl)N2Nc1ccc(Cl)cc1Cl (stereo not given) ) reads 0.465

Field composite z-score (entry [N-]=[N+]=NCc1ccccc1C[C@@]1(C(=O)N2CCCCC2)N=C(c2ccc(OCCCO)cc2)O[C@@H]1c1ccccc1 ) reads -0.0373

Field composite z-score (entry CC(C)C[C@@H]1NC(=O)[C@@H]2C[C@H](C(=O)NCCCCCN)[C@H](c3ccc(O)cc3)N2C1=O ) reads 0.457

Field composite z-score (entry COc1cccc(/C=C/C=O)c1 ) reads 0.582

Field composite z-score (entry N#Cc1ccc(NN2C(C(O)c3ccc(F)cc3)C=CC3C(=O)N(c4ccccc4)C(=O)C32)cc1 (stereo not given) ) reads 0.0271

Field composite z-score (entry CN(C)C(=O)[C@@]1(CCS(=O)(=O)c2ccccc2)N=C(c2ccc(OCCCO)cc2)O[C@H]1c1ccccc1 ) reads 1.05

Field composite z-score (entry COC(=O)C(CC#Cc1ccc2c(c1)[C@]1(C(=O)N2)[C@H](c2ccccc2OCCO)N2[C@H](c3ccccc3)[C@H](c3ccccc3)OC(=O)[C@H]2[C@@H]1C(=O)NC[C@H](O)c1ccccc1)C(=O)OC ) reads 0.951

Field composite z-score (entry O=C(CS)NCCCCCNC(=O)[C@@H]1C[C@@H]2C(=O)N3CCC[C@H]3C(=O)N2[C@@H]1c1cccc(OCCO)c1 ) reads 1.44

Field composite z-score (entry Cc1ccc(S[C@]2(C(=O)NCCCN(C)C)CC(=O)N(C3CCCCC3)[C@@H]2c2ccc(CO)cc2)cc1 ) reads -1.74

Field composite z-score (entry NC(=O)NCC#Cc1ccc2c(c1)[C@]1(C(=O)N2)[C@H](C(=O)O)[C@H]2C(=O)O[C@H](c3ccccc3)[C@H](c3ccccc3)N2[C@@H]1c1ccc(OCCO)cc1 ) reads -0.0721

Field composite z-score (entry CCOC(=O)C[C@H]1[C@H](OC(=O)Cc2ccc3c(c2)OCO3)[C@@H](NC(=O)Cc2ccc(OC)cc2)c2cc(OCCCO)ccc2N1C(=O)c1ccc2ccccc2n1 ) reads 0.183

Field composite z-score (entry O=C1N(Cc2ccccc2)c2ccccc2[C@@H]2OC(c3ccc(OCCCO)cc3)=N[C@]12Cc1ccccc1 ) reads 0.378

Field composite z-score (entry COC(=O)[C@@]1(Cc2ccc(OC)cc2)[C@H]2c3cc(C(=O)N(C)C)n(Cc4ccc(Cl)c(C(F)(F)F)c4)c3C[C@H]2CN1C(=O)c1ccccc1 ) reads -0.213

Field composite z-score (entry Cc1ccc(S[C@]2(C(=O)O)CC(=O)N(C3Cc4ccccc4C3)[C@@H]2c2ccc(CO)cc2)cc1 ) reads 0.794

Field composite z-score (entry COC(=O)c1c(CC[C@@H](CO)NC(=O)N2CCC[C@H]2Cn2cc(Cc3ccccc3)nn2)oc(C(C)=O)c1C(=O)OC ) reads -0.0521

Field composite z-score (entry CCOC(=O)C1=CC[C@@H](c2ccc(OCc3ccccc3)c(OC)c2)N(S(=O)(=O)c2ccc(C)cc2)[C@H]1c1ccc(SC)cc1 ) reads 1.28

Field composite z-score (entry COCCCNC(=O)[C@@]1(Cc2ccccc2CN=[N+]=[N-])N=C(c2ccc(OCCCO)cc2)O[C@H]1c1ccccc1 ) reads 0.821

Field composite z-score (entry CC(CO)N1C(=O)[C@@H]2[C@H]3C(=O)OCC=C[C@H]3OC23C=CCN(C(C)(C)C)C(=O)[C@@H]13 (stereo not given in full) ) reads -1.5

Field composite z-score (entry COc1ccc([Si](C)(C)[C@@H]2[C@@H](CCn3cc([C@H](O)c4ccccc4)nn3)O[C@]3(C(=O)N(Cc4ccc(N5CCC5=O)cc4)c4ccccc43)[C@H]2C)cc1 ) reads 2.13

Field composite z-score (entry CCCCCCc1nc(C2CC2)cc2c1[Si](C(C)C)(C(C)C)OC2 ) reads -0.522

Field composite z-score (entry C=C(CCCC)/C(=C/C[C@@H](OC(=O)c1ccncc1)c1ccccc1OCCO)c1cnc2ccccc2c1 ) reads 0.49

Field composite z-score (entry O=C1OCCC/C=C\[C@H]2OC34C=CCN(CCN5CCOCC5)C(=O)[C@H]3N(CCCCCCO)C(=O)[C@@H]4C12 (stereo not given in full) ) reads 0.944

Field composite z-score (entry COC(=O)c1nc2oc1CC[C@@H](CO)NC(=O)N(C)Cc1cnnn1C[C@H](Cc1ccccc1)NC2=O ) reads -0.182

Field composite z-score (entry COc1cc(CO)cc(I)c1O[C@H]1C=C(C(=O)NCCO)C[C@@H](NCc2ccc(F)cc2)[C@@H]1O ) reads 0.0626
